These data points were gathered from ChEMBL document CHEMBL5303304.

Measured Growth Rate, listed per entry.
# System: HEK-293T
# Measurement notes: Incucyte cell viability with HEK293T; also: unitless GR value; below 1 slowed growth and below 0 cell loss
# Type: toxicity, cell-based
# Cond: human, 0 h, 10 µM, compound concentration 10 uM, replicate number 1
Property name: Growth Rate

Compound | Subject of test | Quantitative readout
CCOc1ccc(S(=O)(=O)Nc2ccc(Cl)cc2C#Cc2cnc(C(=O)[O-])cc2OC)c2ncccc12.[K+] | HEK-293T | 0.28
CN(C(=O)CCOCCOCCOCCOCCNc1cccc2c1C(=O)N(C1CCC(=O)NC1=O)C2=O)[C@H]1CC[C@@]2(C)[C@@H](CC[C@@H]3[C@@H]2CC[C@]2(C)[C@@H](c4ccc5ccncc5c4)CC[C@@H]32)C1 (stereo partly specified) | HEK-293T | 0.06
CCc1cc2c(cc1-c1cccc(S(=O)(=O)F)c1)C(C)(C)c1[nH]c3cc(C#N)ccc3c1C2=O | HEK-293T | 0.33
O=C(O)/C=C/c1ccc(Cn2ccnc2)cc1 | HEK-293T | 0.5
CCCCC[C@@](C)(O)/C=C/[C@H]1C(=O)CC(O)C1C/C=C\CCCC(=O)O (stereo partly specified) | HEK-293T | -0.27
CO[C@H]1CC[C@H](N(c2cc(F)c(Oc3ncc(Cn4nccn4)cc3C(F)(F)F)cc2C(=O)O)C(=O)[C@H]2CC[C@H](C)CC2)CC1 | HEK-293T | 0.27
O=C(Nc1ccc(-n2nc(-c3cccnc3)cc2C(F)(F)F)cn1)c1ccc(-c2ccccc2)c(F)c1 | HEK-293T | -0.8
CCCCCCCN(CCc1ccc(SC(C)(C)C(=O)O)cc1)C(=O)Nc1ccc(F)cc1F | HEK-293T | -0.27
NC1(c2ccc(-c3nc4c(O)ccnn4c3-c3ccccc3)cc2)CCC1 | HEK-293T | -0.07
Cc1nnc2n1-c1sc3c(c1C(c1ccccc1Cl)=NC2)C[C@@H](C(=O)N1CCOCC1)C3 | HEK-293T | -0.21
Clc1ccccc1C(c1ccccc1)(c1ccccc1)n1cccn1 | HEK-293T | 0.43
COC(=O)Nc1nc2c(s1)-c1c(c(-c3cccnc3)nn1-c1ccc(C3(N(C)C)CC3)cc1)CC2.Cl.Cl | HEK-293T | -1
CC(C)S(=O)(=O)c1ccccc1Nc1nc(N[C@@H]2CCCN(CCCCCCCNC(=O)COc3cccc4c3C(=O)N(C3CCC(=O)NC3=O)C4=O)C2)ncc1Cl (stereo partly specified) | HEK-293T | -1
Cc1cc2c(cc(C(=O)N[C@H](CO)c3ccc(S(=O)(=O)CC(=O)O)cc3)n2C)c(Cl)c1Cl | HEK-293T | 0.87
Cc1cccc([C@H]2CC[C@@H](N3CCN(c4cccnc4)CC3)CC2)c1.O=C(O)C(F)(F)F.O=C(O)C(F)(F)F | HEK-293T | 0.98
CN1CCC(F)(Cn2cnc(-c3ccc(F)cn3)c2-c2ccnc3[nH]ccc23)CC1 | HEK-293T | 0.3
O=C1Nc2ccc(C(=O)c3ccco3)cc2C1=Cc1cc(Cl)c(O)c(Cl)c1 [GW406108X] | HEK-293T | -1
C[C@]12CC[C@@H]3c4ccc(C(N)=O)cc4CC[C@H]3[C@@H]1CC=C2c1cncc(F)c1 | HEK-293T | -0.13
CC(C)c1nc2c(c3c1[C@@H](c1ccc(C(F)(F)F)cc1)OC31CCOCC1)[C@@H](O)CC(C)(C)C2.Cl | HEK-293T | 0.12
CN(C)C(=O)Cn1cc(-c2ccc(-c3cncc4ccccc34)cc2)cn1 | HEK-293T | 0.29
Cn1ccc(Cn2cnc(-c3ccc(F)cc3)c2-c2ccnc3[nH]ccc23)n1 | HEK-293T | -0.47
COc1cc(-c2cn[nH]c2)ccc1C(=O)Nc1ccc2c(c1)CCNCC2.Cl | HEK-293T | -0.67
COc1ccccc1S(=O)(=O)Nc1ccc2c(c1)CN(C)C(=O)N2 | HEK-293T | 0.51
CN[C@@H](C)C/C=C/c1cncc(OC(C)C)c1 | HEK-293T | 0.9
COc1cc(-c2cn(C)c(=O)c3cnccc23)c(OC)cc1CN(C)C | HEK-293T | 0.44
COc1cc2nc([C@@H]3CCCS(=O)(=O)C3)n(C)c2cc1NC(=O)c1cccc(C(C)(F)F)n1 | HEK-293T | -0.79
O=C1NC(=Nc2c(Cl)cccc2Cl)S/C1=C\c1ccc2nccnc2c1 | HEK-293T | 0.08
COc1cc(N[C@@H]2CCCC[C@]2(O)C(F)(F)F)ccc1F | HEK-293T | 0.51
O[C@]1(C(F)(F)F)CCCC[C@H]1Nc1ccc(F)cc1 | HEK-293T | -0.2
Cc1ncc(C(=O)Nc2cc(C(C)(C)C)on2)cc1-n1cc(-c2cnn(C)c2C)nn1.Cl | HEK-293T | -0.6
COCCN(C)c1ccc(NC(=O)/C=C(\C)c2ccc3ccccc3c2)c(C(=O)O)c1 | HEK-293T | 0.87
